# System: UACC-257 melanoma
# test description: NCI tumour cell line growth inhibition, 48 h
endpoint name: TGI

[[record]]
compound = "O=C(COc1cccc(/C=C2\\Oc3ccc4ccccc4c3C2=O)c1)c1ccc([N+](=O)[O-])cc1"
value = "> 100 µM"


Given the compound C1=Cc2cccc3occ(c23)C=C1 , what is its reported TGI? > 100 µM

Given the compound C=CCN1C(=O)CS/C1=N\NC(=O)CSc1nc2ccccc2c(=O)n1CC , what is its reported TGI? > 100 µM

Given the compound Nc1ncc2c(n1)-c1ccccc1OC2N1CCOCC1 (stereo not given) , what is its reported TGI? > 100 µM

Given the compound OCC1OC(n2cnc3c(NCc4ccccc4O)ncnc32)C(O)C1O (stereo not given) , what is its reported TGI? > 100 µM

Given the compound COC(=O)[C@H](C)N(C)C(=O)[C@H](C)N1[C@@H](c2ccccc2)COC1(C)C , what is its reported TGI? > 100 µM

Given the compound CC1(C)CC[C@]2(CO)CC[C@]3(C)C(=CC[C@@H]4[C@@]5(C)CCNCC(C)(C)[C@@H]5CC[C@]43C)[C@@H]2C1 , what is its reported TGI? 5.79 µM

Given the compound COc1cc2cnc3c4cc(OC)c(OC(C)C)cc4ccc3c2cc1OC , what is its reported TGI? > 100 µM

Given the compound CC(=O)c1cccc(Nc2nc3ccccc3c3[nH]c4ccccc4c23)c1 , what is its reported TGI? > 100 µM

Given the compound CC[Si](CC)(CC)OC1[C@@H](O[Si](CC)(CC)CC)[C@@H](CNC(=O)NC)O[C@H]1n1cnc2c(NC(=O)Nc3ccccc3)ncnc21 (stereo not given in full) , what is its reported TGI? 55.8 µM

---

# Test system: SNB-19 CNS
# test description: NCI tumour cell line growth inhibition, 48 h
endpoint name: TGI

[[record]]
compound = "O=C(c1ccc(Nc2nccc(NCCCCNc3ccnc4cc(Cl)ccc34)n2)cc1)N1CCCCC1"
experimental_system = "SNB-19 CNS"
value = "21.1 µM"

[[record]]
compound = "COc1ccc(/C=C/c2nc(=S)[nH][nH]2)cc1OC"
experimental_system = "SNB-19 CNS"
value = "> 100 µM"

[[record]]
compound = "O=S(=O)(CF)OCCCCOS(=O)(=O)CF"
experimental_system = "SNB-19 CNS"
value = "> 100 µM"


Given the compound O=C(O)CCC(NC(=O)c1ccc(CNc2nc3cc(C(F)(F)F)ccc3nc2C(=O)O)cc1)C(=O)O (stereo not given) , what is its reported TGI? > 100 µM

Given the compound CC(C)(C)OC(=O)C1/C(=C/CBr)CN1C(=O)OC(C)(C)C (stereo not given) , what is its reported TGI? 32.5 µM

---

# System: CAKI-1 renal
# test description: NCI tumour cell line growth inhibition, 48 h
Listed compounds paired with reported TGI

Given the compound C/C=C(\C)C(=O)O[C@@H]1C=CC(=O)O[C@H]1CNC(=O)[C@H](C)O , what is its reported TGI? 36.5 µM

---

# System: SK-OV-3 ovarian
# test description: NCI tumour cell line growth inhibition, 48 h
Listed molecules paired with reported TGI

[[record]]
molecule = "O=C(Nc1ccc(Cl)cc1)N1CCN(c2ccc3nncn3n2)CC1"
value = "> 100 µM"

[[record]]
molecule = "O=C(CCl)Nc1ccc(Cc2ccc(NC(=O)CCl)cc2)cc1"
value = "> 100 µM"

[[record]]
molecule = "C=C1C(C(=O)O)C1C(=O)O (stereo unspecified)"
value = "> 100 µM"


Given the molecule CC(=O)c1ccc(Oc2c3ccccc3nc3occc23)cc1 , what is its reported TGI? > 100 µM

Given the molecule O=C1c2ccccc2C(=O)c2sc(Nc3ccc([N+](=O)[O-])cc3)nc21 , what is its reported TGI? 36.8 µM

Given the molecule CCOC(=O)c1ccn2c(c1)c(C#N)c1nc3ccccc3nc12 , what is its reported TGI? > 100 µM

Given the molecule O=C(NC(CCCCN1C(=O)c2ccccc2C1=O)P(=O)(Oc1ccccc1)Oc1ccccc1)OCc1ccccc1 (stereo unspecified) , what is its reported TGI? > 100 µM

Given the molecule COc1ccc(NC(=O)c2cccc(C3CCc4c(cc(OC)c(OC)c4OC)O3)c2)cc1 (stereo unspecified) , what is its reported TGI? > 100 µM

Given the molecule CCN(CC)CCCC(C)Nc1ccnc(/C=C/c2ccc(Cl)cc2)c1 (stereo unspecified) , what is its reported TGI? 10.7 µM
